biological target: T1, human LAP-TGFB1 Fc fusion (human); assay: SPR
T1 construct: also called human LAP-TGFβ1-Fc; human LAP-TGFβ-Fc isoform 1
T1 sequence (chain, as listed by the source limits assumed): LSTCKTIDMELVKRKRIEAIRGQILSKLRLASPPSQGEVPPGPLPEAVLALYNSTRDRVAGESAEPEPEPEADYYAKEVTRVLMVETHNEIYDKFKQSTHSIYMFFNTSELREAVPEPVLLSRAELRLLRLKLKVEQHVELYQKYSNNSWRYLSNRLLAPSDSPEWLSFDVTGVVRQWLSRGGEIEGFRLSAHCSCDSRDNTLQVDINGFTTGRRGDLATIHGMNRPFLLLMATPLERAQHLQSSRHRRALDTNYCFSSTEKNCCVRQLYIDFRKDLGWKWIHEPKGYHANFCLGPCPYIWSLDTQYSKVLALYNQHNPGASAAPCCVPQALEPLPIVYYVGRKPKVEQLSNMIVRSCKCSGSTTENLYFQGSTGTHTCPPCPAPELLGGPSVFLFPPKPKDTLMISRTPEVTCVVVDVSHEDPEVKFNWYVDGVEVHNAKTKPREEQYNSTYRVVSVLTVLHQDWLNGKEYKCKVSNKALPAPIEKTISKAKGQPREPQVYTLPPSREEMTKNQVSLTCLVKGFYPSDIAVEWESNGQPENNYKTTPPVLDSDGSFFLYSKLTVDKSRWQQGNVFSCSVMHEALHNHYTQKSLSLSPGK
List of Fold change in KD from pH 7.4 to pH 6 values.
Report as a plain number; the unit fold is understood.

Guide cases for Fold change in KD from pH 7.4 to pH 6, answers given:
binder="56BLH (Fab, V domains shown, also called 08BLM Fab) VH: EVQLVQSGAEVKKPGASVKVSCKASGYTFTSYDMHWVRQAPGQGLEWMGRIDPQSGGTKYAQKFQGRATLTVDTSTSTAYMELSRLRSDDTAVYYCARWDYGGQFDVWGQGTLVTVSS VL: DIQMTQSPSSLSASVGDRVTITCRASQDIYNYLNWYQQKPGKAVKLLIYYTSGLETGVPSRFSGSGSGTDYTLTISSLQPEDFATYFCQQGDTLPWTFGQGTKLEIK" parameter_measured="Fold change in KD from pH 7.4 to pH 6" measured_result=1.7
binder="61BLH (Fab, V domains shown, also called 13BLM Fab) VH: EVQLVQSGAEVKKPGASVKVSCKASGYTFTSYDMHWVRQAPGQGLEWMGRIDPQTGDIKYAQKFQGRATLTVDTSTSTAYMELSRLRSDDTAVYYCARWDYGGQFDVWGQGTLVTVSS VL: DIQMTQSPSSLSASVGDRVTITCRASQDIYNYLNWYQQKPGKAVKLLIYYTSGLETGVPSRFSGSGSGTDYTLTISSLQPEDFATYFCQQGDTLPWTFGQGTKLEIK" parameter_measured="Fold change in KD from pH 7.4 to pH 6" measured_result=2.4
binder="62BLH (Fab, V domains shown, also called 14BLM Fab) VH: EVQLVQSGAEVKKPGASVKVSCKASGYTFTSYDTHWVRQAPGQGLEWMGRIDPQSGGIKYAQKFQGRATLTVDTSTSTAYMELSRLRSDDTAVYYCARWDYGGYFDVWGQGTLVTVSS VL: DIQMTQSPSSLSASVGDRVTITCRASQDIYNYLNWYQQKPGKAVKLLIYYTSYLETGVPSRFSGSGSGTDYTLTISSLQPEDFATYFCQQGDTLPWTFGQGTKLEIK" parameter_measured="Fold change in KD from pH 7.4 to pH 6" measured_result=1.2

Turning to the following binder.
stdin: Quick check: Fold change in KD from pH 7.4 to pH 6 of 68BLH (Fab, V domains shown, also called 20BLM Fab) VH: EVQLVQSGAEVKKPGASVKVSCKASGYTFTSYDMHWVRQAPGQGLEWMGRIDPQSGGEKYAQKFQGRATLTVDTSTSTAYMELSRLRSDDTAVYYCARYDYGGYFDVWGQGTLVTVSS VL: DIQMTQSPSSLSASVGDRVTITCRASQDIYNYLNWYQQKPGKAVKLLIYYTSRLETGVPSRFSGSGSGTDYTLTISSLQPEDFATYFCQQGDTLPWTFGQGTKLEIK ?
stdout: 1.2
